Where do the numbers come from? From ChEMBL document CHEMBL1141882.

target: RAF proto-oncogene serine/threonine-protein kinase (Homo sapiens); assay: Inhibition of human RAF proto-oncogene serine/threonine-protein kinase at 30 uM
Is inhibition at least 4%? Then satisfied. If not, not satisfied.

SMILES_TEXT	CATEGORY
Fc1ccc(Sc2ncnc3[nH]cnc23)cc1	satisfied
Cn1c(-c2ccccc2)nc2c(Sc3ccc(F)cc3)ncnc21	satisfied
Fc1ccc(Cn2cnc3ncnc(Cl)c32)cc1	satisfied
Fc1ccc(Cc2[nH]cnc3ncnc2-3)cc1	not satisfied
Fc1ccc(Nc2[nH]cnc3ncnc2-3)cc1	satisfied
Cn1c(-c2ccccc2)nc2c(-c3ccc(F)cc3)ncnc21	satisfied
Fc1ccc(Oc2[nH]cnc3ncnc2-3)cc1	not satisfied
CSc1ccc(-c2nc3c(Sc4ccccc4)ncnc3n2C)cc1	satisfied
Nc1ncnc2ncn(Cc3ccc(F)cc3)c12	satisfied
Fc1ccc(-[n+]2c[nH]c3ncncc32)cc1	not satisfied
Nc1ncnc2c1ncn2Cc1ccc(F)cc1	satisfied

* * *

molecular target: RAF proto-oncogene serine/threonine-protein kinase (Homo sapiens); assay: Inhibition of human RAF proto-oncogene serine/threonine-protein kinase at 30 uM
Is inhibition at least 10%? Then YES. If not, NO.

SMILES_TEXT	CATEGORY
Cn1c(-c2ccc(S(C)(=O)=O)cc2)nc2c(Sc3ccc(F)cc3)ncnc21	NO
Cn1cnc2c(SCc3ccccc3)ncnc21	YES
Cn1c(C#CCCO)nc2c(Sc3ccccc3)ncnc21	NO
Cn1cnc2c(Nc3ccccc3)ncnc21	YES
Cn1cnc2c(-c3ccc(F)cc3)ncnc21	NO
c1ccc(Oc2ncnc3[nH]cnc23)cc1	NO
Cn1cnc2c(SCc3ccc(F)cc3)ncnc21	YES

* * *

molecular target: Mitogen-activated protein kinase 8 (Homo sapiens); experiment: Inhibition of human c-Jun N-terminal kinase-1 alpha-1 at 30 uM
Recorded inhibition, one value per entry.

COMPOUND	inhibition [%]
CSc1ccc(-c2nc3c(Sc4ccccc4)ncnc3n2C)cc1	0
Cn1c(-c2ccc([S+](C)[O-])cc2)nc2c(Sc3ccccc3)ncnc21 (stereo not drawn)	0
Cn1c(C#CCCO)nc2c(Sc3ccccc3)ncnc21	0

* * *

biological target: Rho-associated protein kinase 2 (Homo sapiens) (UniProt O75116); experiment: Inhibition of human Rho-dependent protein kinase-II at 30 uM
Sequence (O75116 whole entry, looked up): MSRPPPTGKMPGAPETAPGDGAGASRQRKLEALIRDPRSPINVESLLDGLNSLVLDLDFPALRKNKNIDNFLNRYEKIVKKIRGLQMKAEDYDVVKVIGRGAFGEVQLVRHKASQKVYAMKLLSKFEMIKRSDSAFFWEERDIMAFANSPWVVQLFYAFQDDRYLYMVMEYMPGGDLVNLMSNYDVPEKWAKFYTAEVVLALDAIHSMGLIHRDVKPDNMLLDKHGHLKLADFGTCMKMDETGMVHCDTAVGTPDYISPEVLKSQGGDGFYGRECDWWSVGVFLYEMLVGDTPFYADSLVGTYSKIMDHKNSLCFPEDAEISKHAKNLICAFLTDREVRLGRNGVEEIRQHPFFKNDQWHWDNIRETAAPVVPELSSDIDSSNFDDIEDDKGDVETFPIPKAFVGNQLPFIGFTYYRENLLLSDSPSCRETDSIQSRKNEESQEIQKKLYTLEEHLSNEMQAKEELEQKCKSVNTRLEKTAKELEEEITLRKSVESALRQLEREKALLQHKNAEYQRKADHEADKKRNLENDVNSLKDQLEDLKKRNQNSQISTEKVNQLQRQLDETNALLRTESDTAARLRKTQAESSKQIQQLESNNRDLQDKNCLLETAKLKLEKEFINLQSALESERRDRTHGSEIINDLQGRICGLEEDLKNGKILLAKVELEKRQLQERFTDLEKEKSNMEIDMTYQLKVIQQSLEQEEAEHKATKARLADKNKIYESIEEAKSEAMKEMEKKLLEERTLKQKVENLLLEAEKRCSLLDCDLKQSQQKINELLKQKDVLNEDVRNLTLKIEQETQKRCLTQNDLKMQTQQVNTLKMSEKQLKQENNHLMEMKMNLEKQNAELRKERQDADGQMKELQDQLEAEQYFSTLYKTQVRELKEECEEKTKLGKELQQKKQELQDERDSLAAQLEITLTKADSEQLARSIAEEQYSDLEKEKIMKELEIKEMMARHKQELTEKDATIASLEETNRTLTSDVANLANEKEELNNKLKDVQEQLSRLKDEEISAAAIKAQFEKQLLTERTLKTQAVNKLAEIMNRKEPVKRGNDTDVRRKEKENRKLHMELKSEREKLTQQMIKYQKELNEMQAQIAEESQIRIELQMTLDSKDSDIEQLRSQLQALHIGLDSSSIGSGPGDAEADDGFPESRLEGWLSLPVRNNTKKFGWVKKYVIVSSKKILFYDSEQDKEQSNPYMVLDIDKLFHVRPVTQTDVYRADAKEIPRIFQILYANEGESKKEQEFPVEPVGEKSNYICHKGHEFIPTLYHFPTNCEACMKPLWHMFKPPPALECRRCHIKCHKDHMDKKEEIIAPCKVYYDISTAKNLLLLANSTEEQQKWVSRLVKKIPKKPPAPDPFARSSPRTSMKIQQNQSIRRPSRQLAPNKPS
RESULT_TYPE: inhibition (%)

COMPOUND	RECORDED_NUMBER
Nc1ncnc2ncn(Cc3ccc(F)cc3)c12	6
Fc1ccc(C[n+]2c[nH]c3ncncc32)cc1	4
Nc1ncnc2c1ncn2Cc1ccc(F)cc1	0
Cn1c(-c2ccc(S(C)(=O)=O)cc2)nc2c(Sc3ccccc3)ncnc21	5
Cn1c(-c2ccccc2)nc2c(-c3ccc(F)cc3)ncnc21	0
c1ccc(Sc2ncnc3[nH]cnc23)cc1	33
Cn1cnc2c(-c3ccccc3)ncnc21	8
Cn1cnc2c(Nc3ccccc3)ncnc21	0
Cn1cnc2c(SCc3ccccc3)ncnc21	1
Cn1cnc2c(-c3ccc(F)cc3)ncnc21	10
Fc1ccc(Cn2cnc3c(Sc4ccccc4)ncnc32)cc1	2
Clc1ncnc2c1ncn2Cc1ccccc1	3
c1ccc(Nc2ncnc3[nH]cnc23)cc1	48
Cn1cnc2c(SCc3ccc(F)cc3)ncnc21	6
c1ccc(C[n+]2c[nH]c3ncncc32)cc1	7
Cn1c(-c2ccc([S+](C)[O-])cc2)nc2c(Sc3ccccc3)ncnc21 (centres undefined)	1
Nc1ncnc2c1ncn2Cc1ccccc1	5
Fc1ccc(Cn2cnc3c(Cl)ncnc32)cc1	0
Fc1ccc(Nc2[nH]cnc3ncnc2-3)cc1	52
c1ccc(Sc2[nH]cnc3nccc2-3)cc1	36
Cn1c(-c2ccccc2)nc2c(Sc3ccccc3)ncnc21	1
Cn1c(Br)nc2c(Sc3ccccc3)ncnc21	0
c1ccc(Oc2ncnc3[nH]cnc23)cc1	16
CSc1ccc(-c2nc3c(Sc4ccc(F)cc4)ncnc3n2C)cc1	0
Fc1ccc(Cn2cnc3ncnc(Cl)c32)cc1	7
c1ccc(-[n+]2c[nH]c3ncncc32)cc1	0
Cn1c(-c2ccc(S(C)(=O)=O)cc2)nc2c(Sc3ccc(F)cc3)ncnc21	0
Fc1ccc(Sc2ncnc3[nH]cnc23)cc1	37
Fc1ccc(Sc2ncnc3c2ncn3Cc2ccccc2)cc1	5
Cn1cnc2c(Sc3ccccc3)ncnc21	6
Fc1ccc(Cc2[nH]cnc3ncnc2-3)cc1	2
Fc1ccc(Sc2[nH]cnc3nccc2-3)cc1	42
c1ccc(CSc2ncnc3[nH]cnc23)cc1	28
Fc1ccc(CSc2[nH]cnc3ncnc2-3)cc1	18
Clc1ncnc2ncn(Cc3ccccc3)c12	6
Fc1ccc(Oc2[nH]cnc3ncnc2-3)cc1	9
c1ccc(Cn2cnc3c(Sc4ccccc4)ncnc32)cc1	1
Cn1cnc2c(/C=C/c3ccccc3)ncnc21	0
c1ccc(Cc2[nH]cnc3ncnc2-3)cc1	1
Cn1c(C#CCCO)nc2c(Sc3ccccc3)ncnc21	0
Nc1[nH]cnc2ncnc1-2	28
Fc1ccc(Cn2cnc3c(Sc4ccc(F)cc4)ncnc32)cc1	0
Cn1cnc2c(Nc3ccc(F)cc3)ncnc21	7
Cn1c(-c2ccc([S+](C)[O-])cc2)nc2c(Sc3ccc(F)cc3)ncnc21 (centres undefined)	0
CSc1ccc(-c2nc3c(Sc4ccccc4)ncnc3n2C)cc1	0
Cn1cnc2c(Sc3ccc(F)cc3)ncnc21	6
Cn1c(-c2ccccc2)nc2c(Sc3ccc(F)cc3)ncnc21	9
Fc1ccc(-[n+]2c[nH]c3ncncc32)cc1	2
COc1ncnc2ncn(Cc3ccc(F)cc3)c12	1
